Observed pIC50, system Dihydrofolate reductase (Homo sapiens).
FYI, pIC50 means -log10 of a concentration in mol per litre.

COc1ccc(/C=C2\CCCc3c2nc(C)nc3-c2ccc(OC)c(OC)c2)cc1OC
7.00

# input for lookup
Recorded pIC50 (compound `COc1ccc(/C=C2\CCCc3c2nc(N)nc3-c2ccc(OC)c(OC)c2)cc1OC` ): 4.85

The reported numbers originate from ChEMBL document CHEMBL3396974.
